Biological target: T1, CD81 (UniProt P60033 1-236, limits assumed)
T1 construct: whole, on cells; also called CD81 receptor
T1 sequence (looked up): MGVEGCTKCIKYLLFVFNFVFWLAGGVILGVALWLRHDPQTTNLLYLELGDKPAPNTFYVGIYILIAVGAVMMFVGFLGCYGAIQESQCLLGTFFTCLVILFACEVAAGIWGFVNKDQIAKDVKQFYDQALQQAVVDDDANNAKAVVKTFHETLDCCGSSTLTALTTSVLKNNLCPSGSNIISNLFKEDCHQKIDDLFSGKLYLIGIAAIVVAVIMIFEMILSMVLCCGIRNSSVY
Test: cell ELISA;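 note: antibody binding to HuH7 cells expressing CD81 versus a CD81-negative HuH7 control line, bound antibody detected by secondary reagent, absorbance at 450 nm with 620 nm reference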
Binarize ELISA data at 0.6; below is true, at or above is false.

CD81K13 HC 01-hVH_1_f / LC 5b-hVK_1_39-GA (antibody, V domains shown, human constant region) VH: EVQLVQSGAEVKKPGATVKISCKVSGYTFTDSYMHWVQQAPGKGLEWMGRIDTGNGNVKFDPKFQGRVTITADTSTDTAYMELSSLRSEDTAVYYCAPYGYGFHSWGQGTLVTVSS VL: DIQMTQSPSSLSASVGDRVTITCRASENIYRTLAWYQQKPGKAPKLLIYGATTLADGVPSRFSGSGSGTDFTLTISSLQPEDFATYYCQHFWGTPWTFGQGTKVEIK; false
CD81K13 HC 04-hVH_1_69 / LC 1c-hVK_3_15 (antibody, V domains shown, human constant region) VH: EVQLVESGGGLVQPGRSLRLSCTASGFNFKDSYLHWVRQAPGQGLEWMGRIDTGNGNVKFDPKFQGRVTITADESTSTAYMELSSLRSEDTAVYYCVPYGYGFHSWGQGTLVTVSS VL: EIVMTQSPATLSVSPGERATLSCRASENIYRTLAWYQQKPGQAPRLLIYGATTLADGIPARFSGSGSGTEFTLTISSLQSEDFGVYYCQHFWGTPWTFGQGTKVEIK; true
CD81K13 HC 5b-hVH_1_69 / LC 04-hVK_1_9 (antibody, V domains shown, human constant region) VH: QVQLVQSGAELVKPGSSVKVSCKASGFNFKDSYLHWVRQAPGQGLEWMGRIDTGNGNVKFDPKFQGRVTITTDESTSTAYMELSSLRSEDTAVYYCVPYGYGFHSWGQGTLVTVSS VL: DIQLTQSPSFLSASVGDRVTITCRASENIYRTLAWYQQKPGKAPKLLIYAATTLASGVPSRFSGSGSGTEFTLTISSLQPEDFGTYYCQHFWGTPWTFGQGTKVEIK; false
CD81K13 HC 5b-hVH_1_69 / LC 06-hVK_1_39 (antibody, V domains shown, human constant region) VH: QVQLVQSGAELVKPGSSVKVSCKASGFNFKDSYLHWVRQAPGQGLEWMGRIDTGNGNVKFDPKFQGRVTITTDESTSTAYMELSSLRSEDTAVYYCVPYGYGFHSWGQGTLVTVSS VL: DIQMTQSPSSLSASVGDRVTITCRASENIYRTLAWYQQKPGKAPKLLIYAATTLASGVPSRFSGSGSGTDFTLTISSLQPEDFGTYYCQHFWGTPWTFGQGTKVEIK; true

Could you now look at the following binder, please?
Find out if reported ELISA data for CD81K13 HC 5b-hVH_1_69-GA / LC 06-hVK_1_39 (antibody, V domains shown, human constant region) VH: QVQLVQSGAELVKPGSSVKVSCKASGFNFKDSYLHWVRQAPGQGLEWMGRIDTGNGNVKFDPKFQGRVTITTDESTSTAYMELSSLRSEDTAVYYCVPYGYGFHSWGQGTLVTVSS VL: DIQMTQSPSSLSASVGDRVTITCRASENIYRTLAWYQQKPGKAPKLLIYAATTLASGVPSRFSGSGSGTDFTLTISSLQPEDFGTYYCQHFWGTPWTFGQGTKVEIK is less than 0.6 true
